Would you kindly list ABSOLUTE MONOCYTE for each of these molecules?
Organism: Rattus norvegicus
Test: DrugMatrix - Regimen: Daily Repeat
Type: toxicity, organism-based, Sprague-Dawley
Set-up: regimen Daily Repeat, gender Male, age 6-8 weeks
Details: in vivo, po, 0 mg/kg, 72 h, tissue Blood, route oral GAVAGE, dose level Control, time 3 day, vehicle 100 % WATER
Numbers only, in CELLS/uL.

Cc1cc(C(C)(C)C)c(O)c(C)c1CC1=NCCN1 = 66.17

Quick one: give me ABSOLUTE MONOCYTE for each item below, same order please.
1. CC(Cl)(Cl)Cl
2. CCC1(c2ccccc2)C(=O)NC(=O)NC1=O
3. Cc1cn([C@H]2C=C[C@@H](CO)O2)c(=O)[nH]c1=O
4. CCN(CC)C(=S)SSC(=S)N(CC)CC

1: 166.67; 2: 43.83; 3: 63.83; 4: 169

###

Organism: Rattus norvegicus
Assay: DrugMatrix - Regimen: Daily Repeat
Format: toxicity, organism-based, Sprague-Dawley
Parameters: regimen Daily Repeat, gender Male, age 6-8 weeks
Conditions: in vivo, po, 0 mg/kg, 120 h, tissue Blood, route oral GAVAGE, dose level Control, time 5 day, […]
measurement type: MEAN CORPUSCULAR HEMOGLOBIN CONCENTRATION
In your response, the unit should come after the numeric value.

Illustrative cases are given below, each with its answer.
Cc1cccc(C)c1NC(=O)C(C)N (centres undefined) [TOCAINIDE] = 39.62 G/DL
CCC(C)(C)C(=O)O[C@H]1C[C@@H](C)C=C2C=C[C@H](C)[C@H](CC[C@@H]3C[C@@H](O)CC(=O)O3)[C@H]21 = 38.42 G/DL
CS(=O)(=O)c1ccc(C2=C(c3ccccc3)C(=O)OC2)cc1 = 38.95 G/DL

Quick one: give me MEAN CORPUSCULAR HEMOGLOBIN CONCENTRATION for each item below, same order please.
1. COc1ccccc1OCCNCC(O)COc1cccc2[nH]c3ccccc3c12 (centres undefined)
2. O=C(Nc1ccc(Cl)c(Cl)c1)c1cc(Cl)cc(Cl)c1O [3,3',4',5-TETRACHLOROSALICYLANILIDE]
3. CC(C)(c1ccc(O)cc1)c1ccc(O)cc1
4. Oc1ncnc2[nH]ncc12
5. CO[C@H]1O[C@@H]2O[C@@]3(C)CC[C@H]4[C@H](C)CC[C@@H]([C@H]1C)[C@@]24OO3
6. COC(=O)Nc1nc2ccc(C(=O)c3ccccc3)cc2[nH]1

["38.25 G/DL", "38.4 G/DL", "39.92 G/DL", "39.42 G/DL", "37.02 G/DL", "38.25 G/DL"]

###

Organism: Rattus norvegicus
Experiment: DrugMatrix - Regimen: Daily Repeat
Format: toxicity, organism-based, Sprague-Dawley
Set-up: regimen Daily Repeat, gender Male, age 6-8 weeks
Conditions: in vivo, po, 1500 mg/kg, 72 h, tissue Blood, route oral GAVAGE, dose level High, time 3 day, vehicle .5 % CMC
measurement type: MEAN CORPUSCULAR HEMOGLOBIN CONCENTRATION
In your response, the unit should come after the numeric value.

O=C(O)CCc1nc(-c2ccccc2)c(-c2ccccc2)o1 = 39.07 G/DL
Cc1ccc(S(=O)(=O)NC(=O)NN2CCCCCC2)cc1 [TOLAZAMIDE] = 37.03 G/DL
COc1ccc(Cl)cc1C(=O)NCCc1ccc(S(=O)(=O)NC(=O)NC2CCCCC2)cc1 [GLYBURIDE] = 39.47 G/DL
CC[C@H]1OC(=O)[C@H](C)[C@@H](O[C@H]2C[C@@](C)(OC)[C@@H](O)[C@H](C)O2)[C@H](C)[C@@H](O[C@@H]2O[C@H](C)C[C@H](N(C)C)[C@H]2O)[C@](C)(O)C[C@@H](C)C(=O)[C@H](C)[C@@H](O)[C@]1(C)O = 38.43 G/DL

Any idea what MEAN CORPUSCULAR HEMOGLOBIN CONCENTRATION was measured for COc1cc(/C=C/C(=O)O)ccc1O [FERULATE] ?
37.03 G/DL

Each recorded value in this set is attributed to ChEMBL document CHEMBL3885881.
